system: MS2 coat protein; experiment: apparent KD of MS2 coat protein; higher = weaker reporter binding; settings: Eterna round: R107; input ligand: theophylline 2 mM
Recorded apparent KD of MS2 coat protein, one value per entry.
Dear colleague, please return just the value in nM, with no unit written.

residues	value_kind	readout_value
AGGAAAACAUGAGCAAAGCUCAUGUGCGAAGGAGCGGCGGAAACGCCAGGUAGGUCGCGCACAUGAGCAUCAGCCAUGUGUAUCA [Omei Arginine B SS A v4]	apparent KD of MS2 coat protein	409
GGGCAAGAGGGAAGGAGCGUCGGCUGGGUAACAUGAGGAUCACCCAUGUAGCACAUGGUGUGGCAGGUAGGUCGCCCUCUGCCCU [SS-ArgB9]	apparent KD of MS2 coat protein	133
UUGGUACAUGAGGAUCACCCAUGUACUGAAGGAGCGGGACGAAUCUCAGGUAGGUCGCAGACAUGAGGAUCACCCAUGUAUGGCU [Exclusion Arginine A GF 17]	apparent KD of MS2 coat protein	13.1

Q: Please look at this sequence and report its apparent KD of MS2 coat protein: UGUAUGUGAUCUGAUACCAGCUUUGAUAACCUGAGGAUCACCCUGGUAAAGGCGAAAGCCGGCCCUUGGCAGCAGAUCGCAUACU
Ans: 24.6

Q: Please look at this sequence and report its apparent KD of MS2 coat protein: GUACCGUAAACGGCCGCCACUGACAUGAGGAUCACCCAUGUGCUGGUGGUGCACAACCUCAGGUUCAGGACCGGGUUUCCGAGCU [theeternabot_exclusion_MS2_Trp_B_50]
Ans: 32.2

Q: Please look at this sequence and report its apparent KD of MS2 coat protein: AAUUUAAACGGAAGGAGCGUCACUUAAUAUCAACAUGAGGAUCACCCAUGUACGGGUUGUAGACAGGUAGGUCGCCGUCAUUUGA [#15 Same State - Arginine B]
Ans: 64.5

All figures here come from the supplement of paper PMC9170038.
